cell viability (log2) by entry:
Tested on: A673/TR/shEF
assay protocol: cell viability (LOESS-normalised, relative to median of negative controls) (log2 ratio); higher = more viable cells (less compound effect), active = hit call of the paper (over 3 MAD below the median)
experimental setup: 2.5 µM; library screen: screen1; EWS-FLI1 expression: low (doxycycline-induced shRNA knockdown); treatment time: 72 h
In all, about 3,200 compounds went through this assay and about 300 (9.4%) showed activity. What follows is part of a selection rich in actives, with near analogues and random picks from the rest.
Reply with the value as a number alone.

Sample records with cell viability (log2):
| compound | cell viability (log2) |
| --- | --- |
| COc1cc(OC)c(OC)cc1C=O | 0.0609 |
| ClC1=C(Cl)C2(Cl)C3C(Cl)C=CC3C1(Cl)C2(Cl)Cl (stereo not drawn) | 0.0598 |

Read the entry COC(=O)/C=C(\C)OP(=O)(OC)OC and write its reported cell viability (log2). 0.0603

----------
System: A673/TR/shEF
assay protocol: cell viability (LOESS-normalised, relative to median of negative controls) (log2 ratio); higher = more viable cells (less compound effect), active = hit call of the paper (over 3 MAD below the median)
experimental setup: 2.5 µM; library screen: screen1; EWS-FLI1 expression: low (doxycycline-induced shRNA knockdown); treatment time: 72 h
Among all 3,200 compounds or so, about 300 (9.4%) showed activity. The sample holds actives, similar compounds and a random draw of the others, so the mix is not that of the screen.
Response enum: Yes (active), No (inactive)

What did this assay record as the result for CC[C@@]1(O)C[C@H](OC2C[C@@H](N(C)C)C(O)C(C)O2)c2c(cc3c(c2O)C(=O)c2c(O)ccc(O)c2C3=O)[C@H]1C(=O)OC (some centres not stated) ? No

Per the assay record, what outcome was assigned to C[C@@H]1C(=O)O[C@H]2[C@H]1CC[C@@]1(C)C=CC(=O)[C@@]3(C)O[C@@]213 ? No

For CCC(=O)C(CC(C)N1CCOCC1)(c1ccccc1)c1ccccc1 (configuration not stated) , what call appears in the results of this test? No

How was C[C@H]1CC[C@]2(NC1)O[C@H]1C[C@H]3[C@@H]4CC[C@H]5C[C@@H](O)CC[C@]5(C)[C@H]4CC[C@]3(C)[C@H]1[C@@H]2C classified in this test? No

So what was the verdict on C=C1[C@H]2CCC3[C@@](CC[C@@H]4[C@H](C(=O)O)C[C@@H](O[C@H]5O[C@H](CO)[C@@H](OS(=O)(=O)O)[C@H](OS(=O)(=O)O)[C@H]5OC(=O)CC(C)C)C[C@@]34C)(C2)[C@H]1O (some centres not stated) in this test? No

Test call for this compound, please: C[C@@H]1CC[C@@]2(NC1)O[C@H]1C[C@H]3[C@@H]4CC=C5C[C@@H](O)CC[C@]5(C)[C@H]4CC[C@]3(C)[C@H]1[C@@H]2C No

Could you please tell me the result logged for C[C@]12CC[C@H]3[C@@H](CCC4=CC(=O)CC[C@@]43C)[C@@H]1CC[C@@H]2O in this assay? No

I would be grateful if you could indicate the recorded call for COC[C@]12CN(C=O)[C@H]3C4[C@H](OC)[C@H]1C3([C@@H](OC)C[C@H]2O)[C@@H]1C[C@@]2(O)[C@H](OC(=O)c3ccccc3)[C@@H]1[C@]4(OC(C)=O)[C@@H](O)[C@@H]2OC . No

Status in this test for CC(C)=CCC[C@]1(C)C=Cc2c(O)c3c(c(CC=C(C)C)c2O1)O[C@]12C(=C[C@@H]4C[C@H]1C(C)(C)O[C@@]2(C/C=C(/C)C(=O)O)C4=O)C3=O ? No

Which result was noted for this compound in the test: O=C1C=C2C(=CCOC2O)O1 (configuration not stated) Yes

Hi, sorry to bother you, what did the test record for CC(=O)O[C@@H]1C2CC[C@@H]3C1(C[C@@H](O)[C@@]1(O)[C@@H](C[C@H](O)C1(C)C)[C@]3(C)O)C[C@@]2(C)O (some centres not stated) ? No

// param item: O=C(O)COc1ccc(Cl)cc1Cl ; yields the recorded call No

For this compound, state the assay outcome: Cc1nccc2c1[nH]c1ccccc12 No

Please indicate how the test categorized CCCCOC(=O)c1ccccc1C(=O)OCc1ccccc1 . No

What outcome does the record of this test show for CC(=O)[O][Hg][c]1ccccc1 ? Yes

// return assay outcome for CCC(=O)Nc1ccc(Cl)c(Cl)c1 No

Tell me the recorded outcome of this test for CC(=O)[C@H]1CC[C@H]2[C@@H]3CC[C@H]4C[C@@H](O)CC[C@]4(C)[C@H]3CC[C@]12C . No

// param item: CC(C)=CCOc1c2occc2cc2ccc(=O)oc12 ; yields the recorded call No

Which outcome was entered for the compound COC(=O)/C(C)=C\CC12OC(C)(C)C3CC(C=C4C(=O)c5c(OC)c6c(c(CC=C(C)C)c5OC431)OC(C)(CCC=C(C)C)C=C6)C2=O (configuration not stated) in this test? Yes

Hi, sorry to bother you, what did the test record for COc1cc2ccc(=O)oc2c2ccoc12 ? No

Give the logged outcome of this assay for the following compound: C=C1C([C@]2(C)C(CC(=O)OC)[C@@](C)(COC(C)=O)OC(=O)C[C@@H]2OC(C)=O)[C@@H](OC=O)[C@H](OC(=O)C(OC(C)=O)C(C)CC)[C@@]2(C)[C@H](c3ccoc3)CC(=O)C12O (some centres not stated) No

The values you see were collected from the supplement of paper PMC6089552.
